B1: CPEB3 Ribozyme (parent)
chain: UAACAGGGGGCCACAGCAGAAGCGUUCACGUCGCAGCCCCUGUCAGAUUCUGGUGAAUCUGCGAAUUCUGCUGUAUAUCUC

Variants of: B1
Assay: self-cleavage, relative activity (ratio to wild type); higher = more cleavage; in vitro, sequencing
Assign 1 whenever self-cleavage does not fall below 0.5; assign 0 whenever it does.

>>> label_value("UAACAGGGGGCCACAGCAGAAGCGUUCACGUCGCAGCCCCUGGCAGACUCUGGUGAAUCUGCGAAUUCUGCUGUAUAUCUC")
0
>>> label_value("UAACAGGGGGCCUCAGCAGAAGCGUUCACGUCGCAGCCCCUGUCAGAUUCUGGUGAAUAUGCGAAUUCUGCUGUAUAUCUC")
1
>>> label_value("UAACAGGGGGCCACAGCAGAAGCGUUCCCGUCGCAGCUCCUGUCAGAUUCUGGUGAAUCUGCGAAUUCUGCUGUAUAUCUC")
0
>>> label_value("UAACAGGGGGCCACAGCAGAAGCGUUCACGUCGCAGCCCCUGUCAGAGUCUGCUGAAUCUGCGAAUUCUGCUGUAUAUCUC")
1
>>> label_value("UAACAGGAGGCCACAGCAGAAGCGUUCACGCCGCAGCCCCUGUCAGAUUCUGGUGAAUCUGCGAAUUCUGCUGUAUAUCUC")
0
>>> label_value("UAACAGGGGGCCACAGCAGAAGAGUUCACGUCGCAGCCCCUGUCAGAUUCUGGUGAAUCUGCAAAUUCUGCUGUAUAUCUC")
0
>>> label_value("UAACAUGGAGCCACAGCAGAAGCGUUCACGUCGCAGCCCCUGUCAGAUUCUGGUGAAUCUGCGAAUUCUGCUGUAUAUCUC")
0
>>> label_value("UAACAGGGGGCCACAGCAGAAGCGUUCACGUCGCAGCCCCUGUCAGAUUCUGGUGCAUCUGCGAGUUCUGCUGUAUAUCUC")
0
>>> label_value("UAACAGGGGGCCACAGCAGAAACGUUCACGUCGCAGCCCCUGUCAGAUUCUGAUGAAUCUGCGAAUUCUGCUGUAUAUCUC")
1
>>> label_value("UUACAGGGGGCCACAGCAGUAGCGUUCACGUCGCAGCCCCUGUCAGAUUCUGGUGAAUCUGCGAAUUCUGCUGUAUAUCUC")
0
>>> label_value("UAACAGGGGGCCACAGCAGGAGCGUUCACGUCGCAGCCCCUGUCAGAUUCUGGUGAUUCUGCGAAUUCUGCUGUAUAUCUC")
1
>>> label_value("UAACAGGGGGCCACAGCAGAAGCGUACACGUCGCAGCCCCUGUUAGAUUCUGGUGAAUCUGCGAAUUCUGCUGUAUAUCUC")
0
>>> label_value("UAACAGGGGGCCACAGCAGAAGCGUUCACGUCGCAGCCCCUGUCAGAUUCUGGUGAAUCCGCGAAUUCUGCAGUAUAUCUC")
0
>>> label_value("UAACAGGGGGCCACAGCAGAAGCGUUCACGACGCAGCCCCUGUCAGAUUCUGGUGAAUCUGCGAAUUCUGCUGUAUACCUC")
0
>>> label_value("UAACAGGGGGCCACAGCAGAAGCGUUCGCGUCGCAUCCCCUGUCAGAUUCUGGUGAAUCUGCGAAUUCUGCUGUAUAUCUC")
0
>>> label_value("UAACAGGGGGCCACAGCAGCAGCGUUCACGUCGCAGCCCCUGUCAGAUUCUGGUGAAUCUGCGAAUCCUGCUGUAUAUCUC")
0
>>> label_value("UAACAGGGGGCCACAGCAGAAGCGUUCACGUCGGAGCCCCUGUCAGAUUCUGGUGAAUCUGCGAAUUCUGCUGUAUAUCUC")
0
>>> label_value("UAACAGGGGGCCACAGCAGAAGCAUUCACGUCGCAGCCCCUGUCAGGUUCUGGUGAAUCUGCGAAUUCUGCUGUAUAUCUC")
0
